Assay name: pKa measurements of individual IAJD molecules by titration
Type: physicochemical
Condition info: individual IAJD molecule, titration, measurement 1

| Structure smiles string | pKa 1 |
| --- | --- |
| CCCCCCCCCCCCOc1cc(OCCCCCCCCCCCC)cc(C(=O)OCC(COC(=O)c2cc(OCCCCCCCCCCCC)cc(OCCCCCCCCCCCC)c2)(COC(=O)c2cc(OCCOCCOCCOC(=O)CCCN(C)C)c(OCCOCCOCCOC(=O)CCCN(C)C)c(OCCOCCOCCOC(=O)CCCN(C)C)c2)NC(=O)c2cc(OCCOCCOCCOC)c(OCCOCCOCCOC)c(OCCOCCOCCOC)c2)c1 | 6.06 |
| CCCCCCCCCCCCOc1cc(OCCCCCCCCCCCC)cc(C(=O)OCC(COC(=O)c2cc(OCCCCCCCCCCCC)cc(OCCCCCCCCCCCC)c2)(COC(=O)c2cc(OCCOCCOCCOC)c(OCCOCCOCCOC)c(OCCOCCOCCOC(=O)CCCN(C)C)c2)NC(=O)c2cc(OCCOCCOCCOC)c(OCCOCCOCCOC)c(OCCOCCOCCOC)c2)c1 | 6.43 |
| CCCCCCCCCCCCOc1cc(CNC(=O)c2cc(OCCOCCOCCOC)c(OCCOCCOCCOC(=O)CCCN(C)C)c(OCCOCCOCCOC)c2)cc(OCCCCCCCCCCCC)c1 | 6.20 |
| CCCCCCCCCCCCOc1cc(CNC(=O)c2cc(OCCOCCOCCOC(=O)CCCN(C)C)c(OCCOCCOCCOC)c(OCCOCCOCCOC(=O)CCCN(C)C)c2)cc(OCCCCCCCCCCCC)c1 | 6.43 |
| CCCCCCCCCCCCOc1cc(OCCCCCCCCCCCC)cc(C(=O)OCC(COC(=O)c2cc(OCCCCCCCCCCCC)cc(OCCCCCCCCCCCC)c2)(COC(=O)c2cc(OCCOCCOCCOC(=O)CCCN(C)C)c(OCCOCCOCCOC)c(OCCOCCOCCOC(=O)CCCN(C)C)c2)NC(=O)c2cc(OCCOCCOCCOC)c(OCCOCCOCCOC)c(OCCOCCOCCOC)c2)c1 | 6.38 |
| CCCCCCCCCCCCOc1cc(CNC(=O)c2cc(OCCOCCOCCOC(=O)CCCN(C)C)c(OCCOCCOCCOCc3ccccc3)c(OCCOCCOCCOC(=O)CCCN(C)C)c2)cc(OCCCCCCCCCCCC)c1 | 6.52 |

----------
Entries annotated with measured Dh (nm)
Assay name: DLS size of dendrimersomes assembled from glycerol-JDs in water at different concentrations
Format: physicochemical
Condition info: JD 0.05 mg·mL−1 in water; size distribution by intensity

| Compound | Dh (nm) |
| --- | --- |
| CCCCCCCCCCCCOc1cc(OCCCCCCCCCCCC)cc(C(=O)OCC(C)(COC(=O)c2cc(OCCCCCCCCCCCC)cc(OCCCCCCCCCCCC)c2)C(=O)OC[C@H](COC(=O)c2cc(OCCOCCOCCOC)c(OCCOCCOCCOC)c(OCCOCCOCCOC)c2)OC(=O)c2cc(OCCOCCOCCOC)c(OCCOCCOCCOC)c(OCCOCCOCCOC)c2)c1 [Compound 2S, (3,5)-12G1-BMPA-GC-(S)-(3,4,5)-3EO-G1] | 107 nm |
| CCCCCCCCCCCCOc1cc(OCCCCCCCCCCCC)cc(C(=O)OC[C@@H](COC(=O)C(C)(COC(=O)c2cc(OCCOCCOCCOC)c(OCCOCCOCCOC)c(OCCOCCOCCOC)c2)COC(=O)c2cc(OCCOCCOCCOC)c(OCCOCCOCCOC)c(OCCOCCOCCOC)c2)OC(=O)c2cc(OCCCCCCCCCCCC)cc(OCCCCCCCCCCCC)c2)c1 [Compound 1S, (3,5)-12G1-GC-(S)-BMPA-(3,4,5)-3EO-G1] | 86 nm |

----------
Entries annotated with measured Size (d, nm)
Assay name: Dimensions (size, PDI) of DNPs co-assembled from IAJDs and Luc-mRNA by DLS
Assay type: physicochemical
Condition info: Table 14; DNPs, IAJD 4 mg/mL + Luc-mRNA 0.10 mg/mL, acetate buffer pH 4.0

| Compound | Units of measure | Size (d, nm) |
| --- | --- | --- |
| CCCCCCCCCCCCCCCCCCOc1cc(COC(=O)CCCN2CCN(C)CC2)cc(OCCCCCCCCCCCC)c1 [IAJD 107] | nm | 146 |
| CCCCCCCCCCCCCCCCCCOc1cc(COC(=O)CCCN2CCN(C)CC2)cc(OCCCCCCCCCCCCCCCCCC)c1 [IAJD 98] | nm | 187 |
| CCCCCCCCOc1cc(COC(=O)CCCN2CCN(C)CC2)cc(OCCCCCCCC)c1 [IAJD 88] | nm | 100 |
| CCCCC(CC)COc1ccc(COC(=O)CCCN2CCN(C)CC2)cc1OCC(CC)CCCC (stereo not shown) [IAJD 103] | nm | 88 |
| CCCCCCCOC(=O)CCCCOc1cc(COC(=O)CCCN2CCN(C)CC2)cc(OCCCCC(=O)OCCCCCCC)c1 [IAJD 85] | nm | 102 |
| CCCCCCCCCCCCOc1cc(COC(=O)CCN2CCN(C)CC2)cc(OCCCCCCCCCCCC)c1 [IAJD 84] | nm | 171 |
| CCCCCCCCCCCCCCOc1cc(CNC(=O)CCCN2CCN(C)CC2)cc(OCCCCCCCCCCCCCC)c1 [IAJD 108] | nm | 214 |
| CCCCCCCCCCCCCCCCOc1cc(COC(=O)CCCN2CCN(C)CC2)cc(OCCCCCCCCCCCCCCCC)c1 [IAJD 75] | nm | 235 |
| CCCCCCCCCCCCOc1cc(COC(=O)CCCN2CCCCC2)cc(OCCCCCCCCCCCC)c1 [IAJD 65] | nm | 241 |
| CCCCCCCCCCCCCCCCCCOc1cc(COC(=O)CCCN2CCN(C)CC2)cc(OCCCCCCCCCCC)c1 [IAJD 81] | nm | 111 |
| CCCCC(CC)COc1cc(COC(=O)CCCN2CCN(CCO)CC2)cc(OCC(CC)CCCC)c1OCC(CC)CCCC (stereo not shown) [IAJD 97] | nm | 204 |
| CCCCCCCCCCCCOc1ccc(COC(=O)CCCN2CCN(C)CC2)cc1OCCCCCCCCCCCC [IAJD 78] | nm | 629 |
| CCCCCCCCCCCCCCCCOc1cc(COC(=O)CCCN2CCN(C)CC2)cc(OCCCCCCCCCCC)c1 [IAJD 86] | nm | 91 |
| CCCCCCCCCCCCCCOc1cc(COC(=O)CCCN2CCN(C)CC2)cc(OCCCCCCCCCCC)c1 [IAJD 105] | nm | 94 |
| CCCCC(CC)COC(=O)CCCCOc1cc(COC(=O)CCCN2CCN(CCO)CC2)cc(OCCCCC(=O)OCC(CC)CCCC)c1 (stereo not shown) [IAJD 95] | nm | 105 |
| CCCCCCCCCCCCOc1cc(COC(=O)CCCN2CCN(CCO)CC2)cc(OCCCCCCCCCCCC)c1 [IAJD 71] | nm | 237 |
| CCCCCCCCCCCCOCC(COCCCCCCCCCCCC)(COCCCCCCCCCCCC)COC(=O)CCCN1CCN(C)CC1 [IAJD 82] | nm | 162 |
| CCCCCCCCCCCCCCOc1cc(COC(=O)CCCN2CCN(C)CC2)cc(OCCCCCCCCCCCCCC)c1 [IAJD 74] | nm | 180 |
| CCCCCCCCOc1cc(COC(=O)CCCN2CCN(CCO)CC2)cc(OCCCCCCCC)c1 [IAJD 89] | nm | 149 |
| CCCCCCCCCCCCOCC(COCCCCCCCCCCCC)(COCCCCCCCCCCCC)COC(=O)CCCN1CCN(CCO)CC1 [IAJD 83] | nm | 143 |
| CCCCCCCCCCCCCCCCOc1cc(COC(=O)CCCN2CCN(C)CC2)cc(OCCCCCCCCCCCC)c1 [IAJD 106] | nm | 105 |
| CCCCCCCCCCCCCCCCCCOc1cc(COC(=O)CCCN2CCN(CCO)CC2)cc(OCCCCCCCCCCCCCCCCCC)c1 [IAJD 99] | nm | 277 |
| CCCCCCCCCCOc1cc(COC(=O)CCCN2CCN(CCO)CC2)cc(OCCCCCCCCCC)c1 [IAJD 91] | nm | 188 |
| CCCCCCCCCOc1cc(COC(=O)CCCN2CCN(C)CC2)cc(OCCCCCCCCC)c1 [IAJD 77] | nm | 110 |
| CCCCCCCCCCCCOc1cc(COC(=O)CCCN2CCN(C)CC2)cc(OCCCCCCCCCCCC)c1OCCCCCCCCCCCC [IAJD 79] | nm | 352 |
| CCCCC(CC)COc1cc(COC(=O)CCCN2CCN(C)CC2)cc(OCC(CC)CCCC)c1OCC(CC)CCCC (stereo not shown) [IAJD 96] | nm | 139 |
| CCCCC(CC)COc1cc(COC(=O)CCCN2CCN(C)CC2)cc(OCC(CC)CCCC)c1 (stereo not shown) [IAJD 76] | nm | 78 |
| CCCCC(CC)COc1cc(COC(=O)CCCN2CCN(CCO)CC2)cc(OCC(CC)CCCC)c1 (stereo not shown) [IAJD 87] | nm | 146 |
